Taken from paper PMC2597415.

Substrate: O=C(CO)[C@H](O)[C@H](O)COP(=O)(O)O
experimental_details: coupled-enzyme spectrophotometric assay of RPE activity
Type: biochemical, Escherichia coli
experimental_parameters: Co2+ enzyme
readout: Km
Quick note: number first, unit second.

# input Fill in the blank: the reported Km of ALSE (D-allulose 6-phosphate 3-epimerase) (Escherichia coli K-12; DEL196-196) (protein) MKISPSLMCMDLLKFKEQIEFIDSHADYFHIDIMDGHFVPNLTLSPFFVSQVKKLATKPLDCHLMVTRPQDYIAQLARAGADFITLHPETINGQAFRLIDEIRRHDMKVGLILNPETPVEAMKYYIHKADKITVMTVDPGFAGQPFIPEMLDKLAELKAWREREGLEYEIEVDGSCNQATYEKLMAAGADVFIVGSGLFNHAENIDEAWRIMTAQILAAKSEVQPHAKTA is ____.
# output 3.9 ± 0.5 mM
